- Test system: recombinant human CFTR carrying the premature stop codon (PTC) mutation G542X
- protocolDescription: CFTR-PTC mutant translation readthrough, Nanoluc tagged CFTR luminescence (G542X cell line)
- Format: cell-based
- measurementSetup: fold over 10 μM G-418; in combination with G418; G542X cell line
quantityKind: CFTR G542X ACTIVITY Fold 10 μM G-418

Here is how some compounds turned out for CFTR G542X ACTIVITY Fold 10 μM G-418.
- CNC(=O)C1CCN(c2ncc(OCc3c(Cl)cccc3Cl)cn2)CC1: A′ (A′ = ≥10X)
- Cc1cccc(C(F)(F)F)c1COc1cnc(N2CC(=O)N(C)C2=O)nc1: A′ (A′ = ≥10X)
- OCc1ncn(-c2ccc(OCc3c(Cl)cccc3Cl)cc2)n1: A′ (A′ = ≥10X)
- O[C@H]1CCN(c2ncc(OCc3c(Cl)cccc3Cl)cn2)C1: A′ (A′ = ≥10X)
- FC(F)(F)c1cccc(Cl)c1COc1cnc(N2CCCC3(CCNC3)C2)nc1 (stereo not shown): B′ (B′ = ≥5X to <10X)
- Cc1cccc(C(F)(F)F)c1COc1ccc(N2CCOC(CO)C2)nc1 (stereo not shown): A′ (A′ = ≥10X)
- OCc1cn(-c2ccc(CCc3c(Cl)cccc3Cl)cc2)cn1: B′ (B′ = ≥5X to <10X)
- OCc1cn(-c2ncc(OCc3c(Cl)cccc3Cl)cn2)cn1: A′ (A′ = ≥10X)

// query Query for recombinant human CFTR carrying the premature stop codon (PTC) mutation G542X: what CFTR G542X ACTIVITY Fold 10 μM G-418 does the record show for Cc1cccc(C(F)(F)F)c1COc1cnc(N2CCN3CCOCC3C2)nc1 (stereo not shown) ?
// result A′ (A′ = ≥10X)
